- measurement.target: T1, APC222-AA
- T1 chain: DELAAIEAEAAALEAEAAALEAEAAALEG
- protocol: two-hybrid library CCmax;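 further: natural log of median RNA to DNA barcode read ratio; higher means stronger binding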
- condition.set: mean of both orientations
experimental.endpoint: interaction score

DKLAAIKAEAAALEAENAALEAEAAALEG [APC1242-AA]	-1.71
DKLAAIKAKLAANKAELAANEAKLAAEKG [APC1987-AA]	-1.81

(a) DKLAAIKAKLAANKAKLAAIKAELAAEEG [APC1916-AA]
(b) DKLAAIKAKLAAIKAKLAAIKAKNAALKG [APC1115-AA]
Please compare: a and b . Report which one has the smaller interaction score value. The response must carry the label of the picked entry.
a
